Assay: Pharmacokinetic behavior in mice (plasma concentration by LC-MS/MS)
Assay type: in vivo
Conditions: male ICR mice, Intravenous injection (1 mg/kg)
recorded endpoint: AUClast (ng·h/mL)
Give the value in ng·h/mL but do not write ng·h/mL after it.

Query :: Fill in the blank: the reported AUClast of CC(C)(O)c1cc2nn([C@H]3CC[C@H](CCN4CCN5c6ccc(C7CCC(=O)NC7=O)cc6OC[C@@H]5C4)CC3)cc2cc1NC(=O)c1cccc(C(F)(F)F)n1 (stereo partly shown) is ____.
Result :: 8794

---

Target: IRAK4-HiBiT fusion protein (Homo sapiens, UniProt Q9NWZ3)
Construct: K562 from ATCC
Experiment: Detection of HiBiT-IRAK4 proteolysis levels in K562 IRAK4-HiBiT cells (Nano-Glo HiBiT Lytic assay)
Assay type: cell-based
Conditions: 6 h incubation, read-out: Relative DC50
recorded endpoint: DC50 (nM)
Give the value in nM but do not write nM after it.

molecule	subject of test	experimental value
CC(C)(O)c1cc2nn([C@H]3CC[C@H](CCN4CCN5c6ncc(C7CCC(=O)NC7=O)cc6OCC5C4)CC3)cc2cc1NC(=O)c1cccc(C(F)(F)F)n1 (stereo partly shown)	IRAK4-HiBiT fusion protein (Homo sapiens, UniProt Q9NWZ3)	5.43

Query :: Fill in the blank: the reported DC50 of CC(C)Oc1cc2nc([C@H]3CC[C@H](CCN4CCC5(CC4)OCc4cc(C6CCC(=O)NC6=O)ccc45)CC3)cn2cc1C(=O)Nc1cnn2cccnc12 (stereo partly shown) is ____.
Result :: 3.97

Query :: Fill in the blank: the reported DC50 of COc1cc2nn([C@H]3CC[C@H](CCN4CCC5(CC4)OCc4cc(C6CCC(=O)NC6=O)ccc45)CC3)cc2cc1NC(=O)c1cccc(C(F)(F)F)n1 (stereo partly shown) is ____.
Result :: 0.79

Query :: Fill in the blank: the reported DC50 of COc1cc2nn([C@H]3CC[C@H](CCN4CCN5c6ccc(C7CCC(=O)NC7=O)cc6OCC5C4)CC3)cc2cc1C(=O)Nc1cccc(C(F)(F)F)n1 (stereo partly shown) is ____.
Result :: 4.83

Query :: Fill in the blank: the reported DC50 of CC(C)(O)c1cc2nn([C@H]3CC[C@H](CCN4CCN5c6ccc(N7CCC(=O)NC7=O)cc6OCC5C4)CC3)cc2cc1NC(=O)c1cccc(C(F)(F)F)n1 (stereo partly shown) is ____.
Result :: 10.3

Query :: Fill in the blank: the reported DC50 of COc1cc2nn(C3CCN(CCN4CCN5c6ccc(C7CCC(=O)NC7=O)cc6OCC5C4)CC3)cc2cc1NC(=O)c1cccc(C(F)(F)F)n1 (stereo not shown) is ____.
Result :: 0.2

Query :: Fill in the blank: the reported DC50 of CC(C)(O)c1cc2nn([C@H]3CC[C@H](CCN4CCN5c6ccc(C7CCC(=O)NC7=O)cc6OCCC5C4)CC3)cc2cc1NC(=O)c1cccc(C(F)(F)F)n1 (stereo partly shown) is ____.
Result :: 8.51

Query :: Fill in the blank: the reported DC50 of CC(C)(O)c1cc2nn([C@H]3CC[C@H](CCN4CCN5c6ncc(N7CCC(=O)NC7=O)cc6OCC5C4)CC3)cc2cc1NC(=O)c1cccc(C(F)(F)F)n1 (stereo partly shown) is ____.
Result :: 4.48

Query :: Fill in the blank: the reported DC50 of CC(C)(O)c1cc2nn([C@H]3CC[C@H](CCN4CCC5(CC4)OCc4cc(C6CCC(=O)NC6=O)ccc45)CC3)cc2cc1NC(=O)c1cccc(C(F)(F)F)n1 (stereo partly shown) is ____.
Result :: 0.54

Query :: Fill in the blank: the reported DC50 of COc1cc2nn(C3CCN(CCN4CCC5(CC4)OCc4cc(C6CCC(=O)NC6=O)ccc45)CC3)cc2cc1NC(=O)c1cccc(C(F)(F)F)n1 (stereo not shown) is ____.
Result :: 1.6

---

DC50 reference
Target: IRAK4-HiBiT fusion protein (Homo sapiens, UniProt Q9NWZ3)
Construct: K562 from ATCC
Sequence (Q9NWZ3 1-460): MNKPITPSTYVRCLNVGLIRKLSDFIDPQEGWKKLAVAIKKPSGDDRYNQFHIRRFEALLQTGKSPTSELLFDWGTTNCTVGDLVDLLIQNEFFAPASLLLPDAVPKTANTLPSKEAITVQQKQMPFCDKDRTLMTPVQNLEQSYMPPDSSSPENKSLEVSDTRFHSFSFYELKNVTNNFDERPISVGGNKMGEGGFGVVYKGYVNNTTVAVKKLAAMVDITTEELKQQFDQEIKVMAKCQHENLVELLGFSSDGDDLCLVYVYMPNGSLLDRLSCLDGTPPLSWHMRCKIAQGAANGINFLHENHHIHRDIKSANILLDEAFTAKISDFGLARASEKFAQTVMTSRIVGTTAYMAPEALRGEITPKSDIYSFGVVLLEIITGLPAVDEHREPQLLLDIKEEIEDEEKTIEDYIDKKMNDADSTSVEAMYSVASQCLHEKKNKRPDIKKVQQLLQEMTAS
Assay: Detection of HiBiT-IRAK4 proteolysis levels in K562 IRAK4-HiBiT cells (Nano-Glo HiBiT Lytic assay)
Assay type: cell-based
Details: 6 h incubation, read-out: Absolute DC50
Give the value in nM but do not write nM after it.

Some molecules with recorded DC50:
molecule	subject of test	recorded endpoint	units symbol	experimental value
COc1cc2nn(C3CCN(CCN4CCC5(CC4)OCc4cc(C6CCC(=O)NC6=O)ccc45)CC3)cc2cc1NC(=O)c1cccc(C(F)(F)F)n1 (stereo not shown)	IRAK4-HiBiT fusion protein (Homo sapiens, UniProt Q9NWZ3)	DC50	nM	1.64
COc1cc2nn([C@H]3CC[C@H](CCN4CCC5(CC4)OCc4cc(C6CCC(=O)NC6=O)ccc45)CC3)cc2cc1C(=O)Nc1cccc(C(F)(F)F)n1 (stereo partly shown)	IRAK4-HiBiT fusion protein (Homo sapiens, UniProt Q9NWZ3)	DC50	nM	0.48

// moving on: another record for DC50
Query :: State its DC50 on IRAK4-HiBiT fusion protein (Homo sapiens, UniProt Q9NWZ3): COc1cc2nn([C@H]3CC[C@H](CCN4CCC5(CC4)OCc4cc(C6CCC(=O)NC6=O)ccc45)CC3)cc2cc1NC(=O)c1cccc(C(F)(F)F)n1 (stereo partly shown)
Result :: 0.92

---

Vss reference
Assay: Pharmacokinetic behavior in mice (plasma concentration by LC-MS/MS)
Format: in vivo
Conditions: male ICR mice, Intravenous injection (1 mg/kg)
Give the value in L/kg but do not write L/kg after it.

Some molecules with recorded Vss:
molecule	Vss / L/kg
COc1cc2nn([C@H]3CC[C@H](CCN4CCC5(CC4)OCc4cc(C6CCC(=O)NC6=O)ccc45)CC3)cc2cc1NC(=O)c1cccc(C(F)(F)F)n1 (stereo partly shown)	21.4
CC(C)(O)c1cc2nn([C@H]3CC[C@H](CCN4CCN5c6ccc(C7CCC(=O)NC7=O)cc6OC[C@H]5C4)CC3)cc2cc1NC(=O)c1cccc(C(F)(F)F)n1 (stereo partly shown)	1.23
CC(C)(O)c1cc2nn([C@H]3CC[C@H](CCN4CCN5c6ccc(C7CCC(=O)NC7=O)cc6OC[C@@H]5C4)CC3)cc2cc1NC(=O)c1cccc(C(F)(F)F)n1 (stereo partly shown)	1.64

Query :: Fill in the blank: the reported Vss of CC(C)(O)c1cc2nn([C@H]3CC[C@H](CCN4CCN5c6ccc(C7CCC(=O)NC7=O)cc6OCC5C4)CC3)cc2cc1NC(=O)c1cccc(C(F)(F)F)n1 (stereo partly shown) is ____.
Result :: 1.05

---

Dmax reference
Target: IRAK4-HiBiT fusion protein (Homo sapiens)
Construct: K562 from ATCC
Experiment: Detection of HiBiT-IRAK4 proteolysis levels in K562 IRAK4-HiBiT cells (Nano-Glo HiBiT Lytic assay)
Type: cell-based
Details: 6 h incubation
Procedure: […] IRAK4-HiBiT proteolysis experiment: • Step 1: Cell seeding and treatment of compound • 1. […] The luminous value was read by Envision. • 6. Data was calculated and processed. […]
Give the value in % but do not write % after it.

Some compounds with recorded Dmax:
compound	units symbol	Dmax
CC(C)(O)c1cc2nn([C@H]3CC[C@H](CCN4CCN5c6ncc(C7CCC(=O)NC7=O)cc6OCC5C4)CC3)cc2cc1NC(=O)c1cccc(C(F)(F)F)n1 (stereo partly drawn) [Compound 2]	%	96
CC(C)Oc1cc2nc([C@H]3CC[C@H](CCN4CCC5(CC4)OCc4cc(C6CCC(=O)NC6=O)ccc45)CC3)cn2cc1C(=O)Nc1cnn2cccnc12 (stereo partly drawn) [Compound 94]	%	97
COc1cc2nn([C@H]3CC[C@H](CCN4CCC5(CC4)OCc4cc(C6CCC(=O)NC6=O)ccc45)CC3)cc2cc1NC(=O)c1cccc(C(F)(F)F)n1 (stereo partly drawn) [Compound 46]	%	93.6
CC(C)(O)c1cc2nn([C@H]3CC[C@H](CCN4CCN5c6ccc(N7CCC(=O)NC7=O)cc6OCC5C4)CC3)cc2cc1NC(=O)c1cccc(C(F)(F)F)n1 (stereo partly drawn) [Compound 117]	%	89

Query :: Fill in the blank: the reported Dmax of CC(C)(O)c1cc2nn([C@H]3CC[C@H](CCN4CCN5c6ccc(C7CCC(=O)NC7=O)cc6OCCC5C4)CC3)cc2cc1NC(=O)c1cccc(C(F)(F)F)n1 (stereo partly drawn) [Compound 130] is ____.
Result :: 97

Query :: Fill in the blank: the reported Dmax of COc1cc2nn([C@H]3CC[C@H](CCN4CCN5c6ccc(C7CCC(=O)NC7=O)cc6OCC5C4)CC3)cc2cc1C(=O)Nc1cccc(C(F)(F)F)n1 (stereo partly drawn) [Compound 95] is ____.
Result :: 97
